- Test system: Fibroblast
- Procedure text: Multiplex assay against human fibroblast
- Type: toxicity, cell-based
- Details: 48 h, 10 µM, compound concentration 10 uM, replicate 2
Provide the recorded Population Mitochondria Different-Phenotype (%) for the entries that follow.
Give bare numbers, in %.

# annotated cases, reported Population Mitochondria Different-Phenotype (%) shown
C[C@@H](Oc1cc(-n2cnc3ccc(CN4CCN(C)CC4)cc32)sc1C(N)=O)c1ccccc1C(F)(F)F
27
CN1CCN(Cc2ccc(-c3cnc4[nH]cc(-c5ccc6[nH]ccc6c5)c4c3)cc2)CC1
0
CC(Cc1ccc(O)c(O)c1)C(C)Cc1ccc(O)c(O)c1 (centres undefined) [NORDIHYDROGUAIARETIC ACID]
0

Hey, can you go through the list below and give me Population Mitochondria Different-Phenotype (%) for every item?
1. Oc1cccc(-c2nc(N3CCOCC3)c3oc4ncccc4c3n2)c1
2. Cc1ccc(S(=O)(=O)NC2c3ccccc3Oc3ccccc32)cc1
3. CN(c1cc(C(F)(F)F)nc(OCCC(=O)O)n1)c1cccc2c1CCC2
4. CCCCCNC(=N)N/N=C/c1c[nH]c2ccc(OC)cc12.O=C(O)/C=C\C(=O)O [TEGASEROD MALEATE]
5. CN1C(=O)[C@@H](NC(=O)c2cc3ccccc3[nH]2)N=C(c2ccccc2)c2ccccc21 [DEVAZEPIDE]
6. N#Cc1cccc(C(=O)Nc2cc(-c3ccccc3)nn2-c2ccccc2)c1

A.
24
3
4
50
11
1
